Data provenance: the NIST ThermoML archive (doi:10.1021/acs.jced.7b00321)

# conditionsUsed: 293.15 K; 101 kPa; Liquid; Vibrating tube method
For each of the compounds below, state its mass density.
Unit kg/m3 implied. Number only.

query: Give mass density for the following compound: NCCNCCN
result: 951.16

query: Give mass density for the following compound: CCO
result: 788.88

query: Give mass density for the following compound: NCCNCCO
result: 1029.14

query: Give mass density for the following compound: CC(O)CN (stereo not given)
result: 960.81

query: Give mass density for the following compound: NCCCO
result: 987.5

---

For each of the compounds below, state its viscosity.
# conditionsUsed: 313.15 K; 101 kPa; Liquid; Capillary tube (Ostwald / Ubbelohde) method
± gives the expanded uncertainty stated by the source.
Just so you know, I need the unit written after the number.

query: Give viscosity for the following compound: CCO [ethanol]
result: 0.81 ± 0.02 mPa·s

query: Give viscosity for the following compound: NCCNCCN [di(2-aminoethyl)amine]
result: 3.45 ± 0.07 mPa·s

query: Give viscosity for the following compound: NCCCO [3-amino-1-propanol]
result: 15.08 ± 0.32 mPa·s
